Sourced from ChEMBL document CHEMBL1759889

TESTED_SYSTEM: L-cysteine:1D-myo-inositol 2-amino-2-deoxy-alpha-D-glucopyranoside ligase (Mycobacterium tuberculosis)
Sequence (P9WJM9 whole entry): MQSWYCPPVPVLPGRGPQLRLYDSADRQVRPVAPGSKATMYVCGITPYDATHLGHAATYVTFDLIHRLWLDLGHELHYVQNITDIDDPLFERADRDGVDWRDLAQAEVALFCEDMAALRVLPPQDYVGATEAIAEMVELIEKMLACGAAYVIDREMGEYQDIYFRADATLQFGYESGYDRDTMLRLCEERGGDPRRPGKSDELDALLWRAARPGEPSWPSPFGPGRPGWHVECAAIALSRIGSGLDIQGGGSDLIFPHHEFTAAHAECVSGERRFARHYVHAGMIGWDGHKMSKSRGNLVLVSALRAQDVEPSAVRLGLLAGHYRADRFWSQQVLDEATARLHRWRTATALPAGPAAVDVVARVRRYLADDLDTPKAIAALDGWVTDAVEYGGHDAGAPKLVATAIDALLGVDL
ASSAY_NAME: Inhibition of Mycobacterium tuberculosis recombinant MBP-tagged MshC assessed as formation of fluorescently labeled Cys-GlcN-Ins by HPLC
MEASURED_ATTRIBUTE: pIC50
Conceptually, pIC50 converts a concentration in mol/L into minus its log10.

Examples from the recorded data:
> print(dat)
                                   compound  reported.result
1  C[C@@H]1Cc2c(Cl)cc(C(=O)N[C@@H](Cc3ccccc3)C(=O)O)c(O)c2C(=O)O1 [3R14S-OCHRATOXIN A]             2.60
2  Nc1ncnc2c1ncn2[C@@H]1O[C@H](COS(=O)(=O)NC(=O)[C@@H](N)CO)[C@@H](O)[C@H]1O             2.30
3  Nc1ncnc2c1ncn2[C@@H]1O[C@H](COS(=O)(=O)NC(=O)[C@@H](N)CS)[C@@H](O)[C@H]1O             7.30

Okay, next one:
Qu. Give its pIC50 value. Item: Nc1ncnc2c1ncn2[C@@H]1O[C@H](COS(=O)(=O)NC(=O)[C@@H](N)CC(=O)O)[C@@H](O)[C@H]1O
Ans. 2.92

* * *

Reported IC50 values are given for each entry in this list.
TESTED_SYSTEM: L-cysteine:1D-myo-inositol 2-amino-2-deoxy-alpha-D-glucopyranoside ligase (Mycobacterium tuberculosis, UniProt P9WJM9)
ASSAY_NAME: Inhibition of Mycobacterium tuberculosis recombinant MBP-tagged MshC assessed as formation of fluorescently labeled Cys-GlcN-Ins by HPLC

// below: answered molecules
> print(dat)
                            chemical.string  reported.result
1  C/C(=C\C(=O)OCCCCCCCCC(=O)O)C[C@@H]1OC[C@H](C[C@@H]2O[C@H]2[C@@H](C)[C@H](C)O)[C@@H](O)[C@H]1O           > 5 mM
2  C[C@@H]1C[C@H](C)C[C@H](C)[C@@H](O)CC(=O)O[C@H]([C@@H]2CCC[C@H]2C(=O)O)C/C=C/C=C(/C#N)[C@H](O)[C@@H](C)C1           > 2 mM

Qu. Quick one: IC50 for N[C@H]1CCC[C@H]1C(=O)O ?
Ans. > 4 mM
